B1: Growth factor receptor-bound protein 2, Q08012 (parent)
chain: MEAIAKHDFSATADDELSFRKTQILKILNMEDDSNWYRAELDGKEGLIPSNYIEMKNHDWYYGRITRADAEKLLSNKHEGAFLIRISESSPGDFSLSVKCPDGVQHFKVLRDAQSKFFLWVVKFNSLNELVEYHRTASVSRSQDVKLRDMIPEEMLVQALYDFVPQESGELDFRRGDVITVTDRSDENWWNGEIGNRKGIFPATYVTPYHS

- Variants of: B1
- Applied conditions: Drosophila melanogaster; pH 6; Thermal; CD; phosphate 50 mM; Na2SO4 0.4 M; structure 2A36; whole UniProt chain shown
Hi there, I'd appreciate the recorded change of melting temperature, mutant - wild type (higher = more stable) for every entry that follows.

Exercise: // query change of melting temperature, mutant - wild type (higher = more stable) value for entry T22G Q23D
Key: 25.2 °C

Exercise: // query: T22L
Key: -5.7 °C

Exercise: Same thing, different variant: T22F
Key: 3 °C

Exercise: And for T22A ?
Key: 3.2 °C

Exercise: Do the same for T22G please
Key: 21.1 °C

Exercise: Here is the next variant: T22S
Key: -0.2 °C

Exercise: // query: T22K
Key: 1.3 °C

Exercise: Next entry: T22D
Key: 9.4 °C
